- system-name: HLA-A*03:01 (Homo sapiens, UniProt P04439)
- test-name: MHC binding assay, UV-ligand exchange ELISA
- assay-context: peptide exchange yield, binding to HLA-A*03:01
readout-type: Peptide exchange

[[record]]
substance = "125 (ALAQGANLK; listed as Homo sapiens) [compound 125]"
endpoint_value = "+++ (≥50% = +++)"

[[record]]
substance = "190 (STQSSLLYLK; listed as Homo sapiens) [compound 190]"
endpoint_value = "+++ (≥50% = +++)"

[[record]]
substance = "34 (LLFKGLMWK; listed as Homo sapiens) [compound 34]"
endpoint_value = "++++ (≥75% = ++++)"

[[record]]
substance = "21 (MLSAQFILK; listed as Homo sapiens) [compound 21]"
endpoint_value = "++++ (≥75% = ++++)"

[[record]]
substance = "51 (SVFSLVHLFDK; listed as Homo sapiens) [compound 51]"
endpoint_value = "++++ (≥75% = ++++)"

[[record]]
substance = "94 (AVFLGNPSNQK; listed as Homo sapiens) [compound 94]"
endpoint_value = "++++ (≥75% = ++++)"

[[record]]
substance = "8 (VIYNQTLMK; listed as Homo sapiens) [compound 8]"
endpoint_value = "++++ (≥75% = ++++)"

[[record]]
substance = "75 (TTAAVYILK; listed as Homo sapiens) [compound 75]"
endpoint_value = "+++ (≥50% = +++)"

[[record]]
substance = "166 (VIFLHQPPK; listed as Homo sapiens) [compound 166]"
endpoint_value = "++++ (≥75% = ++++)"

[[record]]
substance = "88 (KVGAVVHLK; listed as Homo sapiens) [compound 88]"
endpoint_value = "+++ (≥50% = +++)"

[[record]]
substance = "213 (TLLSFKTVLFK; listed as Homo sapiens) [compound 213]"
endpoint_value = "++++ (≥75% = ++++)"

[[record]]
substance = "17 (MVNWSLTNK; listed as Homo sapiens) [compound 17]"
endpoint_value = "++++ (≥75% = ++++)"

[[record]]
substance = "1 (AILAPPAILK; listed as Homo sapiens) [compound 1]"
endpoint_value = "++++ (≥75% = ++++)"

[[record]]
substance = "35 (SLATAISAK; listed as Homo sapiens) [compound 35]"
endpoint_value = "+++ (≥50% = +++)"

[[record]]
substance = "128 (MTFVPLLAR; listed as Homo sapiens) [compound 128]"
endpoint_value = "++++ (≥75% = ++++)"

[[record]]
substance = "187 (RLCPAAPTGK; listed as Homo sapiens) [compound 187]"
endpoint_value = "++++ (≥75% = ++++)"

[[record]]
substance = "101 (ATNSFLLIK; listed as Homo sapiens) [compound 101]"
endpoint_value = "++++ (≥75% = ++++)"

[[record]]
substance = "144 (IIVPSFYK; listed as Homo sapiens) [compound 144]"
endpoint_value = "+++ (≥50% = +++)"

[[record]]
substance = "37 (RLYSGSSFLY; listed as Homo sapiens) [compound 37]"
endpoint_value = "++++ (≥75% = ++++)"

[[record]]
substance = "70 (LIAGLIFLK; listed as Homo sapiens) [compound 70]"
endpoint_value = "+++ (≥50% = +++)"

[[record]]
substance = "203 (AILVPQPPK; listed as Homo sapiens) [compound 203]"
endpoint_value = "+++ (≥50% = +++)"


Values compiled from patent US11957716B2.
